# Method Summary: RP TLC on non-impregnated control plates
# Format: physicochemical
# Measurement Setup: Table S4, non-impregnated RP plate; acetonitrile/acetate buffer pH 7.4/methanol 60:20:20
Measurement Label: CRP (Rf, control RP plate)
Write the number on its own, no unit after it.

>>> print(df.to_string())
                                   compound  reported_measurement
0  CN1CCN2c3ncccc3Cc3ccccc3C2C1 (centres unmarked) [mirtazapine]                  0.58

Requested read-out: CRP (Rf, control RP plate). Entry: CCCC(CCC)C(=O)O [valproic acid]
0.04

Please give the measured CRP (Rf, control RP plate) for this compound: CN(C)CCCN1c2ccccc2Sc2ccc(Cl)cc21 [chlorpromazine]
0.49

May I ask what CRP (Rf, control RP plate) has been recorded for CN1CCC(=C2c3ccccc3CC(=O)c3sccc32)CC1 [ketotifen] ?
0.75

Which CRP (Rf, control RP plate) is listed for CC(C)c1c(C(=O)Nc2ccccc2)c(-c2ccccc2)c(-c2ccc(F)cc2)n1CC[C@@H](O)C[C@@H](O)CC(=O)O [atorvastatin] ?
0.80
